- Tested on: PC-3 prostate
- procedure_summary: NCI tumour cell line growth inhibition, 48 h
measured_parameter: TGI (µM)
# number only, unit µM dropped from output

Return reported TGI. Input compound: CCN(CC)CCNc1ccc2nc(C)n3c4ccc(OC)cc4c(=O)c1c23
17.5

Return reported TGI. Input compound: CCOC(=O)c1ccc(N[C@@H]2c3cc4c(cc3C(c3cc(OC)c(O)c(OC)c3)[C@H]3C(=O)OCC32)OCO4)cc1 (stereo partly specified)
20.6

Return reported TGI. Input compound: CCc1n(Cc2ccc3ccccc3c2)cc[n+]1Cc1ccc2ccccc2c1
2.49

----------
- Test system: SF-268 CNS
- procedure_summary: NCI tumour cell line growth inhibition, 48 h
measured_parameter: TGI

Please report TGI with SF-268 CNS for item Nc1ncnc2c1ncn2C1(CO)OC(CO)C(O)C1O (stereo not given) .
> 100 µM

Please report TGI with SF-268 CNS for item C=CCC(NCc1ccccc1)c1cn(C(=O)OCC)c2ccccc12 (stereo not given) .
> 100 µM

Please report TGI with SF-268 CNS for item O=C(/C=C/c1cccc(Cl)c1)c1ccccc1 .
26.2 µM

Please report TGI with SF-268 CNS for item CC1(C)CCOC(Sc2ccccc2)C1 (stereo not given) .
> 100 µM

Please report TGI with SF-268 CNS for item COP(=O)(OC)[C@@](O)(c1ccccc1)[C@@H](O)[C@@H](O)c1ccccc1 .
> 100 µM

----------
- Tested on: NCI-H460 lung
- procedure_summary: NCI tumour cell line growth inhibition, 48 h
Answer each item with its documented TGI.

Please report TGI with NCI-H460 lung for item COc1cc2c(cc1OCCCN1CCOCC1)N=C[C@@H]1CCCN1C2=O .
> 100 µM

Please report TGI with NCI-H460 lung for item O=C(O)C(C1NCCS1)N1C(=O)c2ccccc2C1=O (centres undefined) .
> 100 µM

Please report TGI with NCI-H460 lung for item COc1ccc(/C=N/n2c(Cc3ccccc3)n[nH]c2=O)c(OC)c1 .
> 92.5 µM

Please report TGI with NCI-H460 lung for item CC(=O)OC1C(C)OC(Oc2c(-c3ccc(O)cc3)oc3cc(O)cc(O)c3c2=O)C(O)C1OC(C)=O (centres undefined) .
> 100 µM

Please report TGI with NCI-H460 lung for item COc1ccc(-n2c(C)nc3ccc(NC4OCC(OC(C)=O)C(OC(C)=O)C4OC(C)=O)cc3c2=O)cc1 (centres undefined) .
> 100 µM

Please report TGI with NCI-H460 lung for item CCOC(=O)CCC(NC(=O)c1ccc(Oc2nc3cc(N)cc(N)c3nc2-c2ccccc2)cc1)C(=O)OCC (centres undefined) .
> 100 µM

Please report TGI with NCI-H460 lung for item CC[n+]1c(/C=C/c2cc(C(=O)OC)n3c2sc2ccccc23)sc2ccccc21 .
34.3 µM

Please report TGI with NCI-H460 lung for item O=C(O)c1cc(-c2ccc3cc(O)c(O)cc3c2)ccc1O .
> 12.5 µM

Please report TGI with NCI-H460 lung for item CCc1cccc(CC)c1Nc1nc(-c2ccccc2-c2ccccc2)cs1 .
> 100 µM

Please report TGI with NCI-H460 lung for item COC(=O)c1c(C)c2c(c(C)c1O)OC(=O)c1c(C)cc(O)c(C=O)c1O2 .
> 100 µM

Please report TGI with NCI-H460 lung for item N=c1oc2ccccc2cc1C(=O)Nc1ccccn1 .
> 100 µM

Please report TGI with NCI-H460 lung for item CCOC1OC(CO[Si](C)(C)C(C)(C)C)C(O)CC1n1ccc(=O)[nH]c1=O (centres undefined) .
> 100 µM

Please report TGI with NCI-H460 lung for item O=[N+]([O-])C(=C1c2ccccc2-c2ccccc21)[N+](=O)[O-] .
> 100 µM

Please report TGI with NCI-H460 lung for item O=C1NCC2(CCN(CC3COc4ccccc4O3)CC2)N1c1ccccc1 (centres undefined) .
> 100 µM

Please report TGI with NCI-H460 lung for item CN(C)Cc1cc(C(=O)/C=C/c2ccc(Cl)cc2Cl)cc(CN(C)C)c1O .
4.4 µM

Please report TGI with NCI-H460 lung for item COc1cc(C(C)c2cc3c(cc2OCCCCCOc2cc4c(cc2C(C)c2cc(OC)c(OC)c(OC)c2)OCO4)OCO3)cc(OC)c1OC (centres undefined) .
> 100 µM

Please report TGI with NCI-H460 lung for item C=C1C(=O)OC2/C=C(CO)/C=C\C3OC3(C)CC(OC(=O)/C(C)=C/COC(C)=O)C12 (centres undefined) .
15.3 µM

Please report TGI with NCI-H460 lung for item CC(C)(CO)CNc1nc(N)nc(Cl)c1C=O .
> 100 µM

Please report TGI with NCI-H460 lung for item O=C1C=C(c2ccccc2)NC1(c1ccccc1)c1cc(-c2ccccc2)[nH]c1-c1ccccc1 (centres undefined) .
> 100 µM

----------
- System: A549 NSCLC
- procedure_summary: NCI tumour cell line growth inhibition, 48 h
measured_parameter: TGI

Return reported TGI. Input compound: O=C(N/N=C/c1coc2ccc(Cl)cc2c1=O)c1cc(O)c(O)c(O)c1
> 100 µM

Return reported TGI. Input compound: CC(C)OC(=O)NNc1c(Cl)cc(Cl)cc1Cl
> 100 µM

Return reported TGI. Input compound: Cc1cc(NS(=O)(=O)c2ccc(NC(=O)c3ccc4nc5ccccc5c(Nc5ccc(S(N)(=O)=O)cc5)c4c3)cc2)no1
66.3 µM

Return reported TGI. Input compound: CCCCCCCCC#CCCCCCCC(F)C(=O)O (stereo unspecified)
> 100 µM

Return reported TGI. Input compound: O=C(N/N=C\c1ccc([N+](=O)[O-])cc1)Nc1ccc2ccccc2c1
> 100 µM

Return reported TGI. Input compound: CC[P+](C)(C)CC
> 100 µM

Return reported TGI. Input compound: CC(C)(CO)CNc1nc(N)nc(Cl)c1C=O
> 100 µM

Return reported TGI. Input compound: CN1CC[C@@]2(c3cccc(O)c3)CC(=O)/C(=C/c3ccc(Cl)c(Cl)c3)[C@H]1C2
11.5 µM

Return reported TGI. Input compound: CCCCCCCCCCCCNC(=S)OCCCC
> 100 µM

Return reported TGI. Input compound: CC(C)CC1CC2C(=O)N(c3ccccc3)C(=O)C2c2[nH]c3ccccc3c21 (stereo unspecified)
> 53.8 µM

Return reported TGI. Input compound: CCc1n[nH]c(=O)n1N
> 100 µM

----------
- Test system: T-47D breast
- procedure_summary: NCI tumour cell line growth inhibition, 48 h; in the data active = GI50 below about 0.43 µM; inactive = the rest
Outcome field: choose from 1 (yes) = active, 0 (no) = inactive

Check the results log: what was the call for C=CC(=O)N1CCN(c2nc(OC[C@@H]3CCCN3C)nc3c(F)c(-c4nc(N)cc(C)c4C(F)(F)F)c(Cl)cc23)[C@@H](C)C1 ?
0 (no)

Check the results log: what was the call for Nc1ncnc2c1ncn2C1OC(F)(COS(N)(=O)=O)C(O)C1O (stereo not given) ?
0 (no)

Check the results log: what was the call for Cc1ccc(-c2csc3ncnc(Nc4cccc(O)c4)c23)cc1 ?
0 (no)

Check the results log: what was the call for O=C(/C=C/c1cccc(Cl)c1)c1ccccc1 ?
0 (no)

Check the results log: what was the call for COC(=O)c1cc2c3cc(Cl)ccc3[nH]c2c2ncccc12 ?
0 (no)

Check the results log: what was the call for CCn1cnc(C[C@H](NC(=O)[C@@H](NC(=O)Nc2cc(C(F)(F)F)cc(C(F)(F)F)c2)C(C)(C)C)C(=O)OC)c1 ?
0 (no)

Check the results log: what was the call for C=CCC(NCc1ccccc1)c1cn(C(=O)OCC)c2ccccc12 (stereo not given) ?
0 (no)

Check the results log: what was the call for O=C1C=CC(=O)N1c1ccc2ccccc2c1 ?
0 (no)

Check the results log: what was the call for Cc1nc2ccccc2c(/C=C/c2ccc(F)cc2)c1C(=O)/C=C/c1ccccc1 ?
0 (no)

Check the results log: what was the call for CCOC(=O)c1c(C)n(Cc2ccc(Cl)cc2Cl)c2c1cc(O)c1[nH]c(Cc3ccccc3)nc12 ?
0 (no)

Check the results log: what was the call for O=[N+]([O-])c1cc2c(ccc3ccccc32)o1 ?
0 (no)

Check the results log: what was the call for Cc1c(C(=O)Nc2ccc(Oc3ccnc4cc(OCC(C)(C)O)ccc34)c(F)c2)c(=O)n(-c2ccccc2)n1C ?
0 (no)

Check the results log: what was the call for C[C@H]1CCC/C=C/[C@@H]2C[C@H](O)C[C@H]2[C@H](O)C(O)C(O)C(=O)O1 (stereo not given in full) ?
0 (no)

Check the results log: what was the call for O=C1c2c[n+](Cc3ccccc3)ccc2-c2nc3ccccc3c3ccnc1c23 ?
0 (no)

Check the results log: what was the call for CCc1n(Cc2ccc3ccccc3c2)cc[n+]1Cc1ccc2ccccc2c1 ?
1 (yes)

----------
- Test system: DU-145 prostate
- procedure_summary: NCI tumour cell line growth inhibition, 48 h
Answer each item with its documented GI50.

Return reported GI50. Input compound: CC(=O)OC1C(C)OC(Oc2c(-c3ccc(O)cc3)oc3cc(O)cc(O)c3c2=O)C(O)C1OC(C)=O (centres undefined)
31.7 µM

Return reported GI50. Input compound: COc1cc(/C=C/C(=O)c2cccc(-n3cc(-c4ccccc4)[nH]c3=O)c2)ccc1O
2.32 µM

Return reported GI50. Input compound: CCc1n(Cc2ccc3ccccc3c2)cc[n+]1Cc1ccc2ccccc2c1
0.965 µM

Return reported GI50. Input compound: COc1ccc(C(=O)c2no[n+]([O-])c2C(=O)c2ccc(OC)cc2)cc1
14.5 µM

Return reported GI50. Input compound: COc1cccc2c1C(=O)c1c(O)c3c(c(O)c1C2=O)C[C@@](O)(C(=O)CO)C[C@@H]3OC1CC2C(OCN2CN2COC3C(C)OC(O[C@H]4C[C@](O)(C(=O)CO)Cc5c(O)c6c(c(O)c54)C(=O)c4c(OC)cccc4C6=O)CC32)C(C)O1 (some centres undefined)
0.00312 µM

Return reported GI50. Input compound: CCn1cnc(C[C@H](NC(=O)[C@@H](NC(=O)Nc2cc(C(F)(F)F)cc(C(F)(F)F)c2)C(C)(C)C)C(=O)OC)c1
> 10 µM

Return reported GI50. Input compound: CC1=C(C(=O)Nc2cc(F)c(F)cc2F)C(c2ccc(N(C)C)cc2)C(C(=O)Nc2cc(F)c(F)cc2F)=C(C)N1
49.4 µM

Return reported GI50. Input compound: O=C1CC[C@@H]2[C@H]3CCC(=O)c4c3c(c3cccc(O)c3c4O)O[C@@]23C(=O)c2cccc(O)c2C(O)=C13
> 100 µM

Return reported GI50. Input compound: Cc1cc(N)c2cc(NC(=O)/C=C\c3ccccc3Cl)ccc2n1
1.45 µM
